MEASURED_TARGET: human 5-HT2C (INI) receptor (Homo sapiens, UniProt P28335)
Sequence (P28335 33-458): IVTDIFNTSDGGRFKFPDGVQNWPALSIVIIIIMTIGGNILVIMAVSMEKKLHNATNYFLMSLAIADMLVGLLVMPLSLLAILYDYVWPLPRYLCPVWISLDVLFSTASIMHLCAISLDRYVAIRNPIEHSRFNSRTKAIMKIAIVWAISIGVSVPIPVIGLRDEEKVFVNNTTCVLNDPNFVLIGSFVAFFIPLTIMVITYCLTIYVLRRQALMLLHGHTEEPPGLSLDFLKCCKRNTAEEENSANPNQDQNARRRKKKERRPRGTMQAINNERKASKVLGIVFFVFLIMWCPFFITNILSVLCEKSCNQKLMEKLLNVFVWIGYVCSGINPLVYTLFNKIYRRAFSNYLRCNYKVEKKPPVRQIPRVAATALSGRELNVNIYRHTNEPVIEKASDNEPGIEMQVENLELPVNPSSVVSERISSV
ASSAY_TEXT: Calcium flux assay, 5-HT2C
TEST_SETTINGS: 5-HT2C EC50, HEK-293; Table 2 section 1; NA: Emax ≤ 12%
Give pEC50 for every item shown.
One number for each entry, as −log10 of the molar value.

Cl.NC[C@H]1C[C@@H]1c1cccc(F)c1 (relative stereo) [compound 34] | 8.41
Cl.NC[C@@H]1C[C@H]1c1ccccc1Br (relative stereo) [compound 29] | 8.55

Let us move to another entry and its pEC50.
Name the reported pEC50 value associated with the molecule Cl.NC[C@H]1C[C@@H]1c1ccccc1F (relative stereo) [compound 27]
7.43

###

MEASURED_TARGET: human 5-HT2A receptor (Homo sapiens)
Sequence (P28223 whole entry): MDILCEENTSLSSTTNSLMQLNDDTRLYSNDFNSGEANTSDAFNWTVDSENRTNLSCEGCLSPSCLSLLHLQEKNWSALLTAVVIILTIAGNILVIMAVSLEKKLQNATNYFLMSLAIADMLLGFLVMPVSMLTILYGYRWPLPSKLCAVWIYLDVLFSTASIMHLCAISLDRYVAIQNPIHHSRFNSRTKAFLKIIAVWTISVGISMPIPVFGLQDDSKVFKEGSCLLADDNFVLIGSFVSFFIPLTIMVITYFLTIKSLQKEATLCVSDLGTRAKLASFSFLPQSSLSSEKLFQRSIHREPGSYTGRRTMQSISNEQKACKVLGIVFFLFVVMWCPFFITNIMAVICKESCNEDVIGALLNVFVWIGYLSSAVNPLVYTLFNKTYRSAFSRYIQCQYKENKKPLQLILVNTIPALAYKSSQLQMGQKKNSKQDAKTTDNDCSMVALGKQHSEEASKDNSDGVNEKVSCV
ASSAY_TEXT: Calcium flux assay, 5-HT2A
TEST_SETTINGS: 5-HT2A EC50, HEK-293; Table 2 section 4 (independent campaign); NA: Emax ≤ 12%
QUANTITY_KIND: EC50 (nM)
One number for each entry, in nM.

Name the reported EC50 value associated with the compound Cl.NC[C@H]1C[C@@H]1c1ccccc1F (relative stereo)
681

###

Give Selectivity 2A/2C for every item shown.
MEASURED_TARGET: UniProtKB P28335
ASSAY_TEXT: Calcium flux assay, 5-HT2C
TEST_SETTINGS: EC50 ratio; Table 2 section 1
One number for each entry.

Cl.NC[C@H]1C[C@@H]1c1ccccc1Cl (relative stereo) | 79
Cl.NC[C@H]1C[C@@H]1c1ccc(F)cc1 (relative stereo) | 202
Cl.NC[C@@H]1C[C@H]1c1ccccc1Br (relative stereo) | 206

Let us move to another entry and its Selectivity 2A/2C.
Name the reported Selectivity 2A/2C value associated with the compound Cl.NC[C@H]1C[C@@H]1c1cccc(F)c1 (relative stereo)
450

###

MEASURED_TARGET: human 5-HT2A receptor (Homo sapiens)
ASSAY_TEXT: Calcium flux assay, 5-HT2A
TEST_SETTINGS: 5-HT2A EC50, HEK-293; Table 2 section 2 (independent campaign); NA: Emax ≤ 12%
QUANTITY_KIND: pEC50
Numbers only, as −log10 of the molar value.

Cl.NC[C@H]1C[C@@H]1c1ccc(F)cc1 (relative stereo) [compound 41] | 6.19

For each of the compounds below, note its pEC50.
1. Cl.NC[C@H]1C[C@@H]1c1ccccc1F (relative stereo) [compound 27]
2. Cl.NC[C@H]1C[C@@H]1c1cccc(F)c1 (relative stereo) [compound 34]

[6.03, 6.13]
